// provenance: patent US20220315908A1

Test system: four Gardnerella strains (Gv_9, Gv_11, Gv_17, Gv_23)
Assay: CFU reduction averaged across the four Gardnerella strains, with activity ranks
Type: cell-based
Settings: rank 1-91, based on the data of Table 5B
Hi there, I'd appreciate the recorded activity rank of all endolysins for every entry that follows.
# respond with the number and nothing more

Which activity rank of all endolysins value is on record for H1B1: natural Gardnerella prophage endolysin from strain HMP9231 (protein, EL1_strain_HMP9231, natural Gardnerella prophage endolysin from strain HMP9231) MSKKGIDVSEWQGDIDFNAVKASGVEFVIIRAGYGIGCKDKWFEQNYRKAKTAGLDVGAYWYSYANSGFEAAEEAQSLMNMLSGKSFEYPVYFDLEEKSQLNRGRAFCDSLITSFCNKLEACGYYAGFYTSLSTANNLVSAHVRNRYALWIAQWNTHCNYQGSYGLWQYSSNGSVPGVAGRVDMDYAYVDYPSIIKNAGLNGCKNGGSDQAARTSSIDEVAREVINGAWGNGSTRKQRLTSAGYDYASVQNKVNELLGVKACRKSVDELAREVIRGAWGNGSTRKQRLAQAGYDYDTVQKRVNELL ?
44

Which activity rank of all endolysins value is on record for H5B5: natural Gardnerella prophage endolysin from strain JCP7276 (protein, EL5_strain_JCP7276, natural Gardnerella prophage endolysin from strain JCP7276) MSKKGIDVSEWQGDIDFNAVKASGVEFVIIRAGYGIGCKDKWFEQNYRKAKTAGLDVGAYWYSYANSSSEAAEEAQSCANMLSGKSFEYPVYFDLEEKSQLNRGRAFCDSLITGFCSKLEACGYYAGFYTSLSTANNLVSAHVRNRYALWIAQWNTHCSYQGSYGLWQYSSNGSVPGVAGRVDMDYAYKDYPSIIKNAGLNGCKNGGSDQAARTSSIDEVAREVINGAWGNGNERKQRLTQAGYDYTSVQNKVNKLLGVKACRKSVDELAREVIRGTWGNGNERKNRLTQAGYDYDTVQKRVNELL ?
87

Which activity rank of all endolysins value is on record for H11B11: natural Gardnerella prophage endolysin from strain JCP8017A (protein, EL11_strain_JCP8017A, natural Gardnerella prophage endolysin from strain JCP8017A) MSKRGIDVSVWQGDIDFNAVKASGVEFVIIRAGYGIGHKDKWFEQNYRKAKTTGLDVGAYWYSYASSAGEAAEEAQSCVNILSGKSFEYPVYFDLEEKSQLNRGRDFCDSLITSFCNKLETYGYYAGFYTSLSVANNLVSSHVRDRYALWIAQWNTHCDYQGSYGLWQYSSSGSVDGIAGRVDMDYTYVDYPSVIKKAGLNGYKNGGSYTAPQTSSIDEVAREVINGDWGNGNERKNRLTSAGYDYTSVQNKVNELLGVKAYRKSVDELAREVIRGTWGNGSTRKQRLTQAGYDYDAVQKRVNELL ?
57

Which activity rank of all endolysins value is on record for H10B10: natural Gardnerella prophage endolysin from strain G30-4 (protein, EL10_strain_G30-4) MSKRGIDVSVWQGDIDFNAVKASGVEFVIIRAGYGIGHKDKWFEENYRKAKTVGLDVGAYWYSYASSAGEASEEAQSCVNILSGKSFEYPVYFDLEEKSQLNRGRDFCDSLITSFCNKLEACGYYAGFYTSLSVANNLVSSHVRDRYALWIAQWNTHCSYQGSYGLWQYSSSGSVNGIAGRVDMDYAYVDYPSVIKNAGLNGYKNGGSYTAPQISSIDEVAREVINGDWGNGNERKQRLTSAGYDYASVQNKVNELLGVKAYRKSVDELAREVIRGTWGNGSTRKQRLTQAGYDYNAVQKRVNELL ?
6

Which activity rank of all endolysins value is on record for H6B6: natural Gardnerella prophage endolysin from strain 1400E, truncated at the C-terminus (protein, EL6_strain_1400E_frameshift, natural Gardnerella prophage endolysin from strain 1400E, truncated at the C-terminus) MSKKGIDVSVWQGDIDFNAVKASGVEFVIIRAGYGIGCKDKWFEQNYRKAKTCGLDVGAYWYSYANSGFEAAEEAQSCVNMLSGKSFEYPVYFDLEEKSQLNRGRAFCDSLITSFCSKLESCGYYAGFYTSLSTANNLVSAHVRNRYALWIAQWNTHCDYQGSYGLWQYSSSGSVPGVAGRVDMDYAYKNYPSIIKNAGLNGCKNGGSNQAARTSSIDDVAREVINGAWGNGNERKQRLTQAGYDYASVAK ?
86
